EXPERIMENTAL_TARGET: human thyroid receptor beta ligand-binding domain (LBD) (Homo sapiens, UniProt P10828)
Sequence (P10828 217-461 limits assumed): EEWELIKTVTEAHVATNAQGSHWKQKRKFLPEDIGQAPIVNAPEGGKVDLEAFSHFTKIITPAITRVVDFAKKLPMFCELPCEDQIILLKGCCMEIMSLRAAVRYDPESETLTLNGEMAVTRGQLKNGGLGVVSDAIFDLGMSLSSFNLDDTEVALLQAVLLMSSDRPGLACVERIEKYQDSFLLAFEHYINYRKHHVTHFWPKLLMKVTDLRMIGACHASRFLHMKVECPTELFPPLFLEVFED
ASSAY_COMMENT: TR-FRET thyroid receptor beta coactivator assay (THR biochemical assay, Assay 1)
CONDITION_SET: THR-beta, TR-FRET coactivator assay; read-out: Activity category Assay 1 (EC50, THR-beta agonist)
Recorded EC50 by entry

CCC(C)c1cc(Oc2c(Cl)cc(-n3nc(N)c(=O)[nH]c3=O)cc2Cl)n[nH]c1=O (stereo not shown) [Compound 39-A]; < 50 nM
CC(C)Cc1c[nH]c2ccc(Oc3c(Cl)cc(-n4nc(C#N)c(=O)[nH]c4=O)cc3Cl)cc12 [Compound 49]; < 50 nM
Cc1cc(-n2nc(N)c(=O)[nH]c2=O)cc(C)c1Cc1ccc(O)c(-c2ccccc2)n1 [Compound 43]; < 50 nM

// sample Nc1nn(-c2cc(Cl)c(Oc3cc(-c4ccc5ccccc5c4)c(=O)[nH]n3)c(Cl)c2)c(=O)[nH]c1=O [Compound 67] , its EC50 was 50 to 250 nM

// sample CC1(C)C(=O)Nc2nnc(Oc3c(Cl)cc(-n4nc(C#N)c(=O)[nH]c4=O)cc3Cl)cc21 [Compound 74] , its EC50 was 1000 to 25000 nM

// sample CO[C@H]1C[C@H](c2cc(Oc3c(Cl)cc(-n4nc(N)c(=O)[nH]c4=O)cc3Cl)n[nH]c2=O)C1 [Compound 102] , its EC50 was 1000 to 25000 nM

// sample CC(C)c1c[nH]c2nnc(Oc3c(Cl)cc(-n4nc(N)c(=O)[nH]c4=O)cc3Cl)cc12 [Compound 53] , its EC50 was < 50 nM
